Test system: K12877-001-R-J1-PDC complex spheroid viability;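 further: spheroids exposed to agents for one week before readout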
Assay: Anticancer human tumor K12877-001-R-J1-PDC patient-derived lung adenocarcinoma cell line growth inhibition [RAS]
Settings: curve of first compound; second compound 1 µM
pIC50: −log10 of the molar value.
READOUT TYPE: pIC50

# COMPOUND, RESULT
measured = [
    ("Cc1nc(N2CCC3(CC2)COC(C)C3N)c(CO)nc1Sc1ccnc(N)c1Cl (stereo not drawn) + C=CC(=O)N1CCN(c2nc(OCC3CCCN3C)nc3c(F)c(-c4nc(N)cc(C)c4C(F)(F)F)c(Cl)cc23)C(C)C1", "< 5.00"),
    ("C=CC(=O)N1CCN(c2nc(OCC3CCCN3C)nc3c(F)c(-c4nc(N)cc(C)c4C(F)(F)F)c(Cl)cc23)C(C)C1 (stereo not drawn) + C#Cc1c(F)ccc2cc(O)cc(-c3ncc4c(N5CC6CCC(C5)N6)nc(OCC56CCCN5CC(F)C6)nc4c3F)c12", "< 6.00"),
    ("CC(=O)OC12COC1CC(O)C1(C)C(=O)C(O)C3=C(C)C(OC(=O)C(O)C(NC(=O)OC(C)(C)C)c4ccccc4)CC(O)(C(OC(=O)c4ccccc4)C21)C3(C)C (stereo not drawn) + C=CC(=O)N1CCN(c2nc(OCC3CCCN3C)nc3c(F)c(-c4nc(N)cc(C)c4C(F)(F)F)c(Cl)cc23)C(C)C1", "> 7.50"),
]

// data source = PubChem BioAssay AID2060894
